This collection of values is drawn from patent US11123351B2.

test: Solubility of 3α-ethynyl-3β-hydroxyandrostan-17-one oxime in aqueous media; type: physicochemical; conditions: FaSSIF (fasted-state simulated intestinal fluid), fassif
Endpoint: Solubility

Q) Looking for the measured Solubility of C#C[C@]1(O)CC[C@@]2(C)C(CC[C@@H]3[C@@H]2CC[C@]2(C)/C(=N/O)CC[C@@H]32)C1 (stereo partly shown) , can you help?
A) 7 µg/mL

----------
assay: Clinical Phase I single ascending dose (SAD) study, pharmacokinetics and safety; format: in vivo, human; conditions: male, human, in vivo, 1 mg
Endpoint: Cmax (ng/mL)
Dear colleague, please return just the value in ng/mL, with no unit written.

Q) Looking for the measured Cmax of C#C[C@]1(O)CC[C@@]2(C)C(CC[C@@H]3[C@@H]2CC[C@]2(C)/C(=N/O)CC[C@@H]32)C1 (stereo partly shown) [Compound I] , can you help?
A) 13
